Field: Kd. Provide a value for each of the binders that follow.
target: T1, biotinylated ADDL (bADDL) (UniProt P05067 672-713, N-terminal biotin); assay: BIACORE, bADDL as antigen; column IgG1 #1
T1 construct: domain: Aβ1-42; Soluble oligomers of Aβ1-42; also called bADDLs; biotinylated high molecular weight ADDL
Give bare numbers, in nM.

20C2-5A IgG1 (antibody, V domains shown, IgG1 humanized A version; also called SJ-p2-1F) VH: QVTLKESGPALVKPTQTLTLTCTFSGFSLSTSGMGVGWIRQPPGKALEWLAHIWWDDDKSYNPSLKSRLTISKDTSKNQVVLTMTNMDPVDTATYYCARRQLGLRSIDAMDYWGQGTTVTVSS VL: DVVMTQSPLSLPVTPGEPASISCRSSQSILHSNGNTYLEWYLQKPGQSPQLLIYKVSNRFSGVPDRFSGSGSGTDFTLKISRVEAEDVGVYYCFQSSFVPLTFGQGTKLEIK
0.317
20C2-6A IgG1 (antibody, V domains shown, IgG1 humanized A version; also called 4P1-22) VH: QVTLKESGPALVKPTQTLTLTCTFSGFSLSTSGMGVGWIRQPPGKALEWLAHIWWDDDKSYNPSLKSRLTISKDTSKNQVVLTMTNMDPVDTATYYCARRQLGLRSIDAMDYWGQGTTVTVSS VL: DVVMTQSPLSLPVTPGEPASISCRSSQSILHSNGNTYLEWYLQKPGQSPQLLIYKVSNRFSGVPDRFSGSGSGTDFTLKISRVEAEDVGVYYCFQSSRVPLTFGQGTKLEIK
0.0043

Lab note: next binder to report on.
Exercise: Fill in the blank: the reported Kd of 20C2-6B IgG1 (antibody, V domains shown, IgG1 humanized B version; also called 4P1-22) VH: QVTLKESGPALVKPTQTLTLTCTLSGFSLSTSGMGVGWIRQPPGKALEWLAHIWWDDDKSYNPSLKSRLTISKDTSKNQVVLTMTNMDPVDTATYYCARRQLGLRSIDAMDYWGQGTTVTVSS VL: DVVMTQSPLSLPVTPGEPASISCRSSQSILHSNGNTYLEWYLQKPGQSPQLLIYKVSNRFSGVPDRFSGSGSGTDFTLKISRVEAEDVGVYYCFQSSRVPLTFGQGTKLEIK is ____.
Key: 0.053
